tested on: MCL-1-addicted cancer cell-line, H23; assay: apoptosis induction in MCL-1-addicted cancer cell line H23; format: cell-based; conditions: Homo sapiens, NCI-H23; H23 cells, FIG. 1A; read-out: EC50 of inducing apoptosis
READOUT_KIND: EC50

CCOC(=O)c1c(C)oc2cc(Br)c(NS(=O)(=O)c3ccc(OC)cc3)cc12 [Compound 1]; 600 nM
